Sourced from patent US9549922B2

- assayExplanation: in vivo
- runParameters: athymic, mouse, other: E7389 i.v., E7080 p.o.
attributeMeasured: MTD at 14 days (mg/kg)
One number for each entry, in mg/kg.

Q. What value of MTD at 14 days has been reported for the following molecule? C=C1C[C@@H]2CC[C@@]34C[C@H]5O[C@@H]6[C@@H](O3)[C@H]3O[C@H](CC[C@@H]3O[C@H]6[C@H]5O4)CC(=O)C[C@@H]3[C@@H](OC)[C@@H](C[C@H](O)CN)O[C@H]3C[C@H]3O[C@@H](CC[C@@H]1O2)C[C@@H](C)C3=C.CS(=O)(=O)O [E7389]
A. 3
